Reference source for all entries: patent US20220112288A1

Target: T1, Rhesus macaque CD4-HIS (Acro Biosystems, Cat. CD4-C52H7) (rhesus macaque, UniProt P16003 26-390)
T1 construct: Bought reagent; also called Rhesus CD4; rhesus CD4-HIS; not shown: His tag
T1 sequence (P16003 26-390 limits assumed): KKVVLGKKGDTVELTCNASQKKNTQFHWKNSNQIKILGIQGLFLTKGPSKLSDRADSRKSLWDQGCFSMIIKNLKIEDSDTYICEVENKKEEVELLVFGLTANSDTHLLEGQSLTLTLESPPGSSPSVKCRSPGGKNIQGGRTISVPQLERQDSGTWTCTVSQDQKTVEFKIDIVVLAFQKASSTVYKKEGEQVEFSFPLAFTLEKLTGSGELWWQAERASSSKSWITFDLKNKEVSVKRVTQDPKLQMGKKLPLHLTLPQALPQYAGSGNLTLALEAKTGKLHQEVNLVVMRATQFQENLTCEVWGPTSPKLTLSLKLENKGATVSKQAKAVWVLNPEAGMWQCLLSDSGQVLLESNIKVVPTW
Assay: BLI Octet, mAb on anti-mouse Fc sensor, rhesus CD4-HIS 25-100 nM, 1:1 global fit;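 also: purified antibodies captured at 10 µg/mL, rhesus CD4 analyte run as a three-concentration serial dilution, irrelevant antibody as reference control, one kinetic constant set per antibody from global fitting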
MEASURE NAME: koff (s⁻¹)
Write it as a number; the unit s⁻¹ goes unstated.

Reference set, count: 4
>  <BINDER>
75110_01J09A (antibody, V domains shown, Tested as antibody purified from AlivaMab Mouse hybridoma supernatant (captured by anti-mouse IgG Fc)) VH: EVQLVESGGGLVQPGGSLRLSCVASGFTFSSYWMSWVRQAPGKGLEWVANTKEDGSDKYYVDSVKGRFTICRDNAKNSLYLQMNSLRAEDTAVYYCAREGGQWLALDYWGQGTLVTVSS VL: DIQMTQSPSSVSASVGDRVTINCRASQGISSWLAWYQQKPGKAPNLLIFGASSLQSGVPSRFSGSGFGTDFSLTITTLQPEDFATYHCQQANSFPWTFGQGTKVEIK

>  <koff / s⁻¹>
0.0032

$$$$
>  <BINDER>
75110_01A06A (antibody, V domains shown, Tested as antibody purified from AlivaMab Mouse hybridoma supernatant (captured by anti-mouse IgG Fc)) VH: EVQLVESGGGLVQPGGSLRLSCAASGFTFSSYWMSWVRQAPGKGLEWVANINEDGNEKYYVDSVKGRLTISRDNAKNSLYLQMNSLRAEDTAVYFCAREGGQWLSLDYWGQGALVTVSS VL: DIQMTQSPSSVSASVGDRVSITCRASQGISSWLAWYQQKPGKAPKILIYGASSLQSGVPSRFSGSGSGTDFTLTISSLQPEDFATYYCQQANSFPWTFGQGTKVEIK

>  <koff / s⁻¹>
0.001

$$$$
>  <BINDER>
75110_04F22A (antibody, V domains shown, Tested as antibody purified from AlivaMab Mouse hybridoma supernatant (captured by anti-mouse IgG Fc)) VH: EVQLVESGGGLVQPGGSLRLSCAASGFTFSSYDIHWVRQATGKGLEWVSTIGTAGDTYYPGSVKGRFTISRENAKNSLYLQMNSLRAGDTAVYYCARGGYYYYGMDVWGQGTTVTVSS VL: EIVLTQSPGTLSLSPGERATLSCRASQSVYSSYLAWYQQKPGQAPRLLIYGASSRATGIPDRFSGSGSGTDFTLTISRLEPEDFAVYYCQQFGTSPFTFGPGTKVDIK

>  <koff / s⁻¹>
0.0011

$$$$
>  <BINDER>
75110_02E22A (antibody, V domains shown, Tested as antibody purified from AlivaMab Mouse hybridoma supernatant (captured by anti-mouse IgG Fc)) VH: QVQLQESGPGLVKPSETLSLTCTVSGGSISSFYWSWIRQPAGKGLEWIGRIYTSGSTNYNPSLKSRVTMSVDTSKNQFSLKLSSVTAADTAVYYCARELEKRNYYGMDVWGQGTTVTVSS VL: DIQMTQSPSSLSASVGDRVTITCQASHDISNYLNWYQQKPGKAPKLLIFDASTLETGVPSRFSGSGSGTYFTFTIRSLQPEDIATYYCQQYDSLPLTFGGGTKVEIK

>  <koff / s⁻¹>
0.0044

$$$$

Here is the next item to consider.
# query: koff of entry 75110_03I08A (antibody, V domains shown, Tested as antibody purified from AlivaMab Mouse hybridoma supernatant (captured by anti-mouse IgG Fc)) VH: QVQLQESGPGLVKPSETLSLTCTVSGGSISSYYWSWIRQPPGKGLEWIGYIYYSGSTNYNPSLKSRVTISVDTSKNQFSLKLSSVTAADTAVYYCAREGEQWFYGLDVWGQGTTVTVSS VL: EIVLTQSPGTLSLSPGERATLSCRASQSVSSTYLAWYQQKPGQAPRLLIYGSSSRATGIPDRFSGSGSGTDFTLTISRLEPEDFAVYYCQQYGNSFPITFGQGTRLEIK
0.00061
